B1: CCND1 (parent)
chain: PEAEENKQIIRKHAQTFVALCATD

Variants of: B1
Assay: protein stability index of a GFP-peptide fusion (GPS, HEK-293T) (PSI 1-6); higher = more stable;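 note: lentivirally expressed fusions sorted by FACS into six bins by GFP to DsRed ratio, PSI derived from sequencing read proportions per bin multiplied by bin number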
Conditions: c terminus: a fixed tail appended
protein stability index values for the variants below.
Readout Type: protein stability index

Query Sequence	Readout Type	Measured Value
PEAEENKQIIRKYAQTFVALCATD [H13Y]	protein stability index	2.59
PEAEENKQIIRTHAQTFVALCATD [K12T]	protein stability index	3.06
PEAEENKQIIRKHACTFVALCATD [Q15C]	protein stability index	2.84
PEAEENKQIIRKHGQTFVALCATD [A14G]	protein stability index	3.71
PEAEENKQPIRKHAQTFVALCATD [I9P]	protein stability index	3
PEAEENKQIIRKHAQDFVALCATD [T16D]	protein stability index	4.81
PEAEENKQWIRKHAQTFVALCATD [I9W]	protein stability index	2.73
PEAEEFKQIIRKHAQTFVALCATD [N6F]	protein stability index	2.17
PEAVENKQIIRKHAQTFVALCATD [E4V]	protein stability index	2.38
PEAEENCQIIRKHAQTFVALCATD [K7C]	protein stability index	2.92
PEAEENKQIIRKHAQTFAALCATD [V18A]	protein stability index	3.77
PEAEENKQIIRKHAQTFVALCGTD [A22G]	protein stability index	3.37
MEAEENKQIIRKHAQTFVALCATD [P1M]	protein stability index	2.68
PEAEENKQIIRKHAQTNVALCATD [F17N]	protein stability index	5.41
PEAEENKQIIRKHAQTFVALQATD [C21Q]	protein stability index	4.95
PEAEENKQIIRKHAQTFVALCAWD [T23W]	protein stability index	2.63
PEAEENKQIIRLHAQTFVALCATD [K12L]	protein stability index	2.77
PEAEENKQIIRKHAQTFVHLCATD [A19H]	protein stability index	3.32
PEFEENKQIIRKHAQTFVALCATD [A3F]	protein stability index	2.71
PEAEENKQIRRKHAQTFVALCATD [I10R]	protein stability index	3.19
PEAEENKQAIRKHAQTFVALCATD [I9A]	protein stability index	3.74
PEAEENKQIIRKHAQTFVALCATL [D24L]	protein stability index	2.79
PEAEENKQIIRKHAQTFCALCATD [V18C]	protein stability index	3.72
PEAEENKQIILKHAQTFVALCATD [R11L]	protein stability index	3.25
PEAEENKPIIRKHAQTFVALCATD [Q8P]	protein stability index	1.95
PEVEENKQIIRKHAQTFVALCATD [A3V]	protein stability index	3
PEAEENKQIIRKHAQTFLALCATD [V18L]	protein stability index	4.49
PEAEENKQIIRKHAQTYVALCATD [F17Y]	protein stability index	3.27
PEAEENKQCIRKHAQTFVALCATD [I9C]	protein stability index	2.48
PEAEENKQIIRKHAQTFVALCAND [T23N]	protein stability index	2.94
PEAEENKQIIRKHAQTFVALCKTD [A22K]	protein stability index	3.66
IEAEENKQIIRKHAQTFVALCATD [P1I]	protein stability index	2.36
PEAEFNKQIIRKHAQTFVALCATD [E5F]	protein stability index	2.12
PEAEENKQIIRKHAQTFVALEATD [C21E]	protein stability index	4.9
PEAEENKQQIRKHAQTFVALCATD [I9Q]	protein stability index	2.81
PEAEENKQIIRKHAQTFVALCASD [T23S]	protein stability index	2.48
PEAEENKQIIRKHAQTFVANCATD [L20N]	protein stability index	3.84
PEAEENKQIIRKHDQTFVALCATD [A14D]	protein stability index	3.71
PEAEENKQIIRKWAQTFVALCATD [H13W]	protein stability index	2.25
PEAEENKQIIRKHAQTFVAHCATD [L20H]	protein stability index	3.21
PEAEENKQIIRHHAQTFVALCATD [K12H]	protein stability index	3.47
PEAEENKRIIRKHAQTFVALCATD [Q8R]	protein stability index	3.07
PEAEENKQIIRKHAQTFVALCDTD [A22D]	protein stability index	3.87
PEAEENKQIIRKHAQTFVAFCATD [L20F]	protein stability index	4.21
EEAEENKQIIRKHAQTFVALCATD [P1E]	protein stability index	3.45
PEAEENKQIIRKHAQTDVALCATD [F17D]	protein stability index	5.61
PEAEPNKQIIRKHAQTFVALCATD [E5P]	protein stability index	2.33
PEAEENKQIIRKHAQTFMALCATD [V18M]	protein stability index	4.35
PEAQENKQIIRKHAQTFVALCATD [E4Q]	protein stability index	2.39
PEAEENGQIIRKHAQTFVALCATD [K7G]	protein stability index	3.26
PEAEEAKQIIRKHAQTFVALCATD [N6A]	protein stability index	2.14
PEAEENKQIIIKHAQTFVALCATD [R11I]	protein stability index	2.84
PEAEENKQIIRKHAQTFVAACATD [L20A]	protein stability index	3.3
PEAEENKQIIRKHAQTFVALCWTD [A22W]	protein stability index	2.09
PEAEENKQIIRKHAQTGVALCATD [F17G]	protein stability index	5.43
PEAEENKQIGRKHAQTFVALCATD [I10G]	protein stability index	2.53
PEAEENKQIIRKHAQTFVALCATN [D24N]	protein stability index	3.88
GEAEENKQIIRKHAQTFVALCATD [P1G]	protein stability index	2.78
PEAEENKQIISKHAQTFVALCATD [R11S]	protein stability index	2.62
PEAEENKQIIRKHAQTFVYLCATD [A19Y]	protein stability index	3.64
PEANENKQIIRKHAQTFVALCATD [E4N]	protein stability index	2.36
PEAEENKQIIRKPAQTFVALCATD [H13P]	protein stability index	3.17
PEAEENKQFIRKHAQTFVALCATD [I9F]	protein stability index	2.86
PEAEENKQIIRKHAQTFIALCATD [V18I]	protein stability index	4.42
PEAEENKQIIRKHAQAFVALCATD [T16A]	protein stability index	4.71
PEAEENKQIIRKHAQTFVATCATD [L20T]	protein stability index	4.04
DEAEENKQIIRKHAQTFVALCATD [P1D]	protein stability index	3.29
PEAETNKQIIRKHAQTFVALCATD [E5T]	protein stability index	1.69
PEEEENKQIIRKHAQTFVALCATD [A3E]	protein stability index	3.02
PEAEENKQIIYKHAQTFVALCATD [R11Y]	protein stability index	2.88
PETEENKQIIRKHAQTFVALCATD [A3T]	protein stability index	2.15
PEAERNKQIIRKHAQTFVALCATD [E5R]	protein stability index	1.93
PEAEENKQIIRKHAQTFVGLCATD [A19G]	protein stability index	2.91
PEAEENKQIIRKHATTFVALCATD [Q15T]	protein stability index	3.18
PEAEENKQIIRKHAQTFVALCAAD [T23A]	protein stability index	2.87
PRAEENKQIIRKHAQTFVALCATD [E2R]	protein stability index	1.87
PEAEENKQIIRKHAQTFVALCHTD [A22H]	protein stability index	3.38
PEAEENKQIIRKHAQTFVAWCATD [L20W]	protein stability index	4.15
PEAEENKQIHRKHAQTFVALCATD [I10H]	protein stability index	3.5
PEAEENKQIIRGHAQTFVALCATD [K12G]	protein stability index	3.65
PEAEENKQIIRIHAQTFVALCATD [K12I]	protein stability index	2.39
PEAEENPQIIRKHAQTFVALCATD [K7P]	protein stability index	3.19
PEAEENKQIIRKHAQTFVALFATD [C21F]	protein stability index	3.75
PEAEENKQIIRKHAQGFVALCATD [T16G]	protein stability index	3.88
